- Target or test system: T1, human GPC3-his tag protein (human, UniProt P51654 25-559, limits assumed)
- T1 construct: recombinant soluble antigen used as analyte in all Biacore runs; also called recombinant GPC3 protein; rhGPC3-His; not shown: His tag
- Assay details: SPR Biacore 8K, mAb captured, affinity ranking
Property name: Kd (nM)

binder="52H5D3B8-6#-VH1+VL3 (antibody, V domains shown, humanized) VH: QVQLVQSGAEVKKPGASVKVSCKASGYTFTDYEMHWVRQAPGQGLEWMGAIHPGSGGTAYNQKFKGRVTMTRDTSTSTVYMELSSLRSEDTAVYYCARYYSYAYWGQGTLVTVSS VL: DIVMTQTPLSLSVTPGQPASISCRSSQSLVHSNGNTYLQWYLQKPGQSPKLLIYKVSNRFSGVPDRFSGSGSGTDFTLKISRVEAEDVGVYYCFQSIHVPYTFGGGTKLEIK" property_name=Kd unit_symbol=nM observed=1.74
